Overview of reported pIC50 across a group of molecules:
# tested-system: human Cereblon WT GST-tagged protein (Homo sapiens, UniProt Q96SW2)
# Construct: purchased CISBIO 64BDCRBNPEH
# Sequence (Q96SW2 whole entry): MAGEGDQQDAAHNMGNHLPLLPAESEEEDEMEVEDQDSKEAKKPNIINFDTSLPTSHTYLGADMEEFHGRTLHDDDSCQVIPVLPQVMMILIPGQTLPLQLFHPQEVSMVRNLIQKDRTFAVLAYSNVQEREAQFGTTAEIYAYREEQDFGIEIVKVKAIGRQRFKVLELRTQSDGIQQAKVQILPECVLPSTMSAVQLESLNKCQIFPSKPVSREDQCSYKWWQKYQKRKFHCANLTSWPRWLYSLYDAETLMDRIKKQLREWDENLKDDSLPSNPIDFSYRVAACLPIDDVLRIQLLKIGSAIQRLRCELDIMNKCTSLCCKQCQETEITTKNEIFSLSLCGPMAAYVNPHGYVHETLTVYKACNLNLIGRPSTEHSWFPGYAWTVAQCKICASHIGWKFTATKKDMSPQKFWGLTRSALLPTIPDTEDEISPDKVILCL
# method-notes: CRBN binding, HTRF CEREBLON BINDING kit
# condition-details: CRBN binding, HTRF CEREBLON BINDING kit
pIC50: −log10 of the molar value.

# molecule, tested-system, value-observed
records = [
    ("O=C1CCC(c2ccc(CN3CCN(Cc4ccc5c(c4)nc(NC(=O)c4cccc(C(F)(F)F)c4)n5[C@H]4CC[C@@H](CO)CC4)CC3)cc2)C(=O)N1 (stereo partly drawn)", "human Cereblon WT GST-tagged protein (Homo sapiens, UniProt Q96SW2)", "5.72 to 6.00"),
]

Param item = COc1cc2nn(C3CCN(Cc4ccc(N5CCC(=O)NC5=O)c(F)c4)CC3)cc2cc1NC(=O)c1cccc(C(F)(F)F)n1 ; retrieve measured pIC50.
5.72 to 6.00

Param item = O=C1CCC(c2ccc(CN3CCC(N4CCN(c5ccc6c(c5)nc(NC(=O)c5cccc(C(F)(F)F)c5)n6[C@H]5CC[C@@H](CO)CC5)CC4)CC3)cc2)C(=O)N1 (stereo partly drawn) ; retrieve measured pIC50.
5.72 to 6.00

Param item = CN(Cc1cc(N2CCC(=O)NC2=O)ncc1F)C1CCN(c2ccc(-c3cc(F)c4c(c3)C(=O)N(C(C(=O)Nc3nccs3)c3ncn5c3CCC5)C4)cc2)CC1 (stereo not drawn) ; retrieve measured pIC50.
6.00 to 6.30

Param item = O=C1CCN(c2cncc(CN3C[C@H]4C[C@@H]3CN4c3ccc(-c4cc(F)c5c(c4)C(=O)N(C(C(=O)Nc4nccs4)c4ncn6c4CCC6)C5)cc3)c2)C(=O)N1 (stereo partly drawn) ; retrieve measured pIC50.
> 6.30

Param item = O=C1CCN(c2ccc(CN3CCC(n4cc(NC(=O)c5coc(-c6ccnc(NCC7CC7)c6)n5)c(C(F)F)n4)CC3)nc2)C(=O)N1 ; retrieve measured pIC50.
6.00 to 6.30

Param item = Nc1nnc(-c2ccccc2O)cc1N1CCN(Cc2cccc(N3CCC(=O)NC3=O)c2)CC1 ; retrieve measured pIC50.
5.72 to 6.00

Param item = O=C1CCN(c2ccc(CN3C4CCC3CN(c3ccc(-c5cc(F)c6c(c5)C(=O)N(C(C(=O)Nc5nccs5)c5ncn7c5CCC7)C6)cc3)C4)nc2)C(=O)N1 (stereo not drawn) ; retrieve measured pIC50.
> 6.30

Param item = O=C1CCN(c2ccc(CN3C[C@@H]4C[C@H]3CN4c3ccc(-c4cc(F)c5c(c4)C(=O)N(C(C(=O)Nc4nccs4)c4ncn6c4CCC6)C5)cc3)cc2)C(=O)N1 (stereo partly drawn) ; retrieve measured pIC50.
6.00 to 6.30

Param item = CN(Cc1ccc(C2CCC(=O)NC2=O)cc1)C1CCN(c2ccc(-c3cc(F)c4c(c3)C(=O)N(C(C(=O)Nc3nccs3)c3ncn5c3CCC5)C4)cc2)CC1 (stereo not drawn) ; retrieve measured pIC50.
6.00 to 6.30

* * *

# System: CCRF-CEM
# method-notes: CCK-8 tumor cell proliferation IC50, CCRF-CEM
# condition-details: Homo sapiens, CCRF-CEM cells, compounds designed based on the IRAK4 inhibitors, read-out: Inhibitory activity (IC50, nM) on tumor cell proliferation, CCRF-CEM
# Experimental: The tumor cells used herein were cultured in a cell culture medium listed in table A1 at 37° C. in an incubator with 5% CO2. […] IC50 values of the compounds of the present disclosure (including the compounds in Table 1, and compounds of examples) were measured using the Meilun Cell Counting Kit-8 kit from Dalian Meilun Biotech Co., Ltd. Assay details are as follows: tumor cells were seeded in a 96-well plate at a density listed in Table A2. […]
outcome-measure: IC50

Param item = Cc1cc(-c2nc(C(=O)Nc3cc4oc(N5CCOCC5)nc4nc3N3CC[C@@H](O)C3)co2)ccn1 ; retrieve measured IC50.
> 10000 nM
